Experimental System: All-trans-retinol dehydrogenase [NAD(+)] ADH7 (Homo sapiens)
Sequence (P40394 whole entry): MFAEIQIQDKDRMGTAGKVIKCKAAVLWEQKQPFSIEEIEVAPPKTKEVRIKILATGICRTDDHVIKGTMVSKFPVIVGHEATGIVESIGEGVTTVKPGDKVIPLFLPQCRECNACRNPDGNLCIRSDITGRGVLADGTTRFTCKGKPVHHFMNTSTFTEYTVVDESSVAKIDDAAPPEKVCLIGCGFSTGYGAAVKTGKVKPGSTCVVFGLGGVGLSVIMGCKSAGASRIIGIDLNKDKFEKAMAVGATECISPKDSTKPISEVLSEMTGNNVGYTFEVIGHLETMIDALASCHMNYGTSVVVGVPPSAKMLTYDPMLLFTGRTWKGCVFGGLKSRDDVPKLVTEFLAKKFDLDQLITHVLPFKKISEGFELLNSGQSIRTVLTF
Test: Inhibitory activity against human alcohol dehydrogenase sigma.
pKi: −log10 of the molar value.

Compound Smiles: O=CNC1CCC1
pKi: 4.27

---

Experimental System: Alcohol dehydrogenase (Equus caballus, UniProt P00327+P00328)
Test: Inhibition of horse liver alcohol dehydrogenase activity

Molecule: CC(C)N(C=O)C1CCCCC1
Unit Tag: µM
Ki: 470
//
Molecule: CCCCCCC(C)NC=O (centres undefined)
Unit Tag: µM
Ki: 5.4
//
Molecule: CCCN(C=O)C1CCCC1
Unit Tag: µM
Ki: 1900
//
Molecule: CCN(C=O)C1CCCCC1
Unit Tag: µM
Ki: 1400

Data credit: ChEMBL document CHEMBL1131219
